Hi there, I'd appreciate the recorded Kd for every entry that follows.
target: canine TGFβ1 (canine, UniProt P54831 279-390, limits assumed); assay: SPR, TGFβ on chip
Sequence (P54831 279-390 limits assumed): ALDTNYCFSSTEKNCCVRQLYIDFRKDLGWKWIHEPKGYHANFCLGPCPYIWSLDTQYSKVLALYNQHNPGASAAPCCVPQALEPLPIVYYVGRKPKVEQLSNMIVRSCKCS
Provide only the numeric value, understood in nM.

Enquiry: Fill in: Kd of Can04H09 VH2/VL4 (antibody, V domains shown) VH: EVQLVQSAAEVKKPGASVKVSCKTSGYSFTSSWMNWVQQAPGKGLDWMGQIYPGDGDTNYNGKFKGRVTLTADKSTSTAYMELSSLRSEDAAVYYCARHYDGSTDYWGQGTLVTVSS VL: EIVMTQSPASLSLSQGEKVTITCRASENIYSNLAWYQQRPGQAPKLLIYAATNLADGVPSRFSGSGSGTDFSLTISSLEPEDVAVYYCQHFWGTPYTFGQGTK is ___
Return: 1.42

Enquiry: What measured Kd goes with Can04H09 VH1/VL4 (antibody, V domains shown) VH: EVQLVQSGAEVKKPGASVKVSCKTSGYTFISSWMNWVRQAPGAGLDWMGQIYPGDGDTNYNGKFKGRVTLTADTSTSTAYMELSSLRAGDIAVYYCARHYDGSTDYWGQGTLVTVSS VL: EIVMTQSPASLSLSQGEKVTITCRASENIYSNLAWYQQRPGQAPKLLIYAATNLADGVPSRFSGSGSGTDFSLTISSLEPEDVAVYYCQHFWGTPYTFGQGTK ?
Return: 2.18

Enquiry: What does the data say about its Kd? Entry: Can04H09 VH1/VL3 (antibody, V domains shown) VH: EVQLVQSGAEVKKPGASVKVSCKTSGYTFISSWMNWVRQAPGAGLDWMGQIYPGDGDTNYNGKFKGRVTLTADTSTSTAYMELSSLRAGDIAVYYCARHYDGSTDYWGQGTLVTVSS VL: EIVMTQSPASLSLSQEEKVTITCRASENIYSNLAWYQQKPGQAPKLLIYAATNLADGVPSRFSGSGSGTDFSFTISSLEPEDVAVYYCQHFWGTPYTFGQGTK
Return: 2.43
